# TARGET UNDER TEST: T1, human mesotrypsin (catalytically active) (human, UniProt P35030 81-304)
# T1 construct: mature; In the invasion assays it is the endogenous enzyme of PC3-M cells; also called active mesotrypsin; PRSS3 gene product
# T1 sequence (looked up): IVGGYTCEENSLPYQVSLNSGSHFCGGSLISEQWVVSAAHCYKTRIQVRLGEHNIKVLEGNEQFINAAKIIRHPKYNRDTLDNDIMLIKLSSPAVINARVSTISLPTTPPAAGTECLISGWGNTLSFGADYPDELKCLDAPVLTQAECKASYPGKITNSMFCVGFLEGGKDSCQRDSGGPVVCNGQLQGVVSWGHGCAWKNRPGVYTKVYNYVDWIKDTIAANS
# ASSAY PROCEDURE: inhibition of mesotrypsin cleavage of Z-GPR-pNA; competitive inhibition fit (Equation 1)
The entries below are paired with their reported Ki.
RECORDED METRIC: Ki

BINDER	REPORTED
APPI-M17G (SEQ ID NO: 18), soluble (designed binder, not shown: AvrII site residues and C-terminal HIS6 tag) EVCSEQAETGPCRAGISRWYFDVTEGKCAPFFYGGCGGNRNNFDTEEYCMAVCGSAI	3.29 nM
APPI-F34V (SEQ ID NO: 23), soluble (designed binder, Variants were subcloned between EcoRI and AvrII of the APPI-WT pPIC9K template; not shown: AvrII site residues and C-terminal HIS6 tag) EVCSEQAETGPCRAMISRWYFDVTEGKCAPFVYGGCGGNRNNFDTEEYCMAVCGSAI	50.1 nM
APPI-I18F (SEQ ID NO: 19), soluble (designed binder, not shown: AvrII site residues and C-terminal HIS6 tag) EVCSEQAETGPCRAMFSRWYFDVTEGKCAPFFYGGCGGNRNNFDTEEYCMAVCGSAI	3.29 nM
APPI-WT (SEQ ID NO: 25), soluble, expressed in Pichia pastoris (other, Secreted from P. pastoris GS115, purified by nickel IMAC and gel filtration; also called WT APPI; not shown: N-terminal FLAG tag with the SnaBI/EcoRI-coded residues, and the C-terminal AvrII-coded residues plus His6) EVCSEQAETGPCRAMISRWYFDVTEGKCAPFFYGGCGGNRNNFDTEEYCMAVCGSAI	131 nM
